- experimental_system: Histone deacetylase 1 (Homo sapiens)
- Sequence (Q13547 whole entry): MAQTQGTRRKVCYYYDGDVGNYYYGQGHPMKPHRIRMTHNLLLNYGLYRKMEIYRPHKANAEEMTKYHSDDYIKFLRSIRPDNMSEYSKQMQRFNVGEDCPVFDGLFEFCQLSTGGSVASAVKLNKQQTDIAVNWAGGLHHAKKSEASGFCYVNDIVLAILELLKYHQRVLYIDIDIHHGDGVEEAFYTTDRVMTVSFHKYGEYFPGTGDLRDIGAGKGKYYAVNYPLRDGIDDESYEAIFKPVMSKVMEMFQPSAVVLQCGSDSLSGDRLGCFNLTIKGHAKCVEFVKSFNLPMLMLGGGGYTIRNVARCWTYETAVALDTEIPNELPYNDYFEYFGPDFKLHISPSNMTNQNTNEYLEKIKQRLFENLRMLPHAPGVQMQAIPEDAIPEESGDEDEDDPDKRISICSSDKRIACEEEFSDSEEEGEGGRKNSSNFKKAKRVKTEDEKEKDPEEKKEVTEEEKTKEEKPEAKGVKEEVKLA
- test: Inhibition of human HDAC1 expressed in 293T cells
pIC50: −log10 of the molar value.
value_kind: pIC50

(I) C[C@@H]1NC(=O)[C@](C)(Cc2ccccc2)NC(=O)[C@H](CCCCCSSc2ccccn2)NC(=O)[C@H]2CCCN2C1=O
(II) C[C@@H]1NC(=O)[C@]2(CCc3ccccc32)NC(=O)[C@H](CCCCCSSc2ccccn2)NC(=O)[C@H]2CCCN2C1=O
Query: When the recorded pIC50 values are compared, which is smaller: that of I or that of II ? # answer = label of selected item
Response: II
(II: 7.44, I: 8.43)
